- procedure.summary: soluble on expression in E. coli; label from the status in PepcDB or PDB records
measurement.type: soluble on expression in E. coli

Illustrative cases are given below, each with its answer.
SLQVNTPQTEETANQAKRHVADYTMDGISATALDERGVTKYRFTGVHMNHYEDDLTYDVTFPALRIYAPDRPQVTARADLGKMNGEGSIIDLYDNAKVVRAQGPDLRQDPLMTADSTYFQVLLNDDVVRTDKPVELHRGPSVMNANGLVFNNVTRQVQLLGNVRGRIEGLGAPKQ	soluble
MKLKAILIVALSVVLFLVGYREMKPISDEQKMESMIKALEKNDAKVEKWSWLARETKTISNIHTFQKLLNDVKEKANIQKWEVEQSPDGYKATSYKKLSSYEERVVVTWSKENTKENTFIIFEVSGAKWDPKYVQNMNKIFSEKPIIYTCVQGVLNDKIEGVLQNKTNQVLKDLSARAIEQVEERAFVSVSAYNKKWDDALSTNREKINVQIAIRSTDNKDTIVVGTPIITSEY	not soluble
MTNTSFDNSTIVVGVAGGIAAYKSCHVVRGFKEDGANVVVVPTSAALNFVGKATFEALSGNPVSTTVFDAVDEVRHVNVGQHADLIVVAPATADLIARVAMGRADDLLTATLLVATCPIVLVPAMHAEMWSNAATRENVATLRRRGIIVMDPAHGRLTGADTGPGRLPDSDQIIDFAKTVARTKVMPRDLVGKKVL	not soluble
MGSDKIHHHHHHMIRMIRKFKVKGLRSPSLLIDMILNDTEEGILVVETDGEEQIKDIEKLLKKYNLKYEVDGNVVKIYVGEIKADKTINVVGATCPGPIMMVSDMLSKMKNGEILEIICGKNSLTDLTEGLKGMGNEIIKVEDKGDGTYRILVKKGEKKEEKAAVTKIDELFIINTTGTGNAEKAYATFMMADVALKMNLKPTIFLMMDGASLALKGECDRVKHPAFPKLGDLVRDILSKGVKIYVCELSAEFRGINEKNLEEGFEIAGAPTFLNYLSKPNVRPVWL	not soluble
MGSDKIHHHHHHMRLITFDASYDPIAEESKTVRVYVFEPEKIERNLIFLHGIGNGNIPYLLWFGEKFREYNIKTWFLILPYHEKRAPENWSGGEPFYHSSPSFCVKRFDEAVQDVIDLVDVVKRDNDKPISLMGFSFGGMITTIALAREKRIEKGVICCSGGDWRWINWYSPYTERLRELYRKNGNEYGCRSEKDCIKNRRNAPEIIKSFNSIEDIRKKPPVGCYFYDPASFAPFVDQKVLFFWALFDHVIPYQSYACLHKLLKNKKTVYLPSGHKGSYFFRRYIAKRVVRFLIDDE	not soluble

Okay, next one:
Q: Find the recorded soluble on expression in E. coli belonging to MGRFPSWVLVADWPAPPGVMVLSTLRGGPGVSVAPFDRLNLGNCSGVAGDAPVCVERNRSRLVEMLGLPSVPHWLRQVHGVEVLRVDALLQSIARVVEPTADAAVTSVVGAVLAILTADCLPVVLAAVDGSEIGVVHAGWRGLADDVLGRTVAALRTSPEYLQAWLGPAAGPQAYEVGVDVYAAFVERDSGAACAFSVTRPGHWYVDLYALARQRLMRAGLSAVSIYGGGLCTISDPQRFFSHRRDRRSGRFATLAWIGC and report it.
Result: soluble

* * *

- procedure.summary: soluble on expression in E. coli; label from the status in PepcDB or PDB records
measurement.type: soluble on expression in E. coli

MNKFSLFFALTATLMTITESAVPTASISAHVLDISGGSPAGGVQILAYIQQNDDWTKIGSEFTQDNGRVDWVSPDFTLIPGTYRLVYITEPYYKAKNVESFYPYVEVVFNIRDATQHYHVPLTLSPWGYSTYRGS	not soluble
MKISMEGSSVINLEQLSLYQDSLGYLGQQMNFPEKMTFHPKIFEETISKSHPGYEDLLAYREVMMNYTLSEIKAIYTDTFDFSKKHPLYMTFNKFDTQKERGQMLAKLKVLYEMFGLKMVDNELSDFLPLMLQFLQVADFKNDSRAQENLQLVIMIIEDGTYEMANTLAENNNPYAYVVSALRKTLKACIVPLKEVENHA	not soluble
